tested on: A549; assay: NCI tumour cell line growth inhibition, 48 h
The source made the active and inactive calls. Cut-off read from the data, not from the text of the source: active = GI50 up to about 1.1 µM and inactive = higher.
READOUT KIND: GI50

The cases that follow already have their GI50 on record.
> print(dat)
                                   compound  subject.of.test               result
1  CC(=O)c1ccc2c3c1O[C@H]1c4[nH]c5ccccc5c4C[C@@]4(O)[C@@H](C2)N(CC2CC2)CC[C@]314             A549   1.15 µM (inactive)
2  Cc1nc2ccc(S(=O)(=O)Nc3ccccc3)cc2c(=O)n1NC(=O)CNc1ccccc1             A549  > 100 µM (inactive)

# GI50 lookup, item COc1ccc(NC(=O)CC2S/C(=N\c3ccccc3C)NC2=O)c([N+](=O)[O-])c1 (stereo not given)
> 100 µM (inactive)

# GI50 lookup, item Cc1cc(C)nc(NS(=O)(=O)c2ccc(Nc3c4ccccc4nc4c(C(=O)NCCN(C)C)cccc34)cc2)n1
3.13 µM (inactive)

# GI50 lookup, item CCCC[C@@H]1CCN2C[C@@H](O)[C@@H](O)[C@H]2[C@@H]1O
> 100 µM (inactive)

# GI50 lookup, item Nc1nc2c(c(=O)[n-]1)[n+](CCO)cn2C1OC(CO)C(O)C1O (stereo not given)
> 100 µM (inactive)

# GI50 lookup, item Brc1ccccc1/C=N\C12CC3CC(CC(C3)C1)C2
> 100 µM (inactive)

# GI50 lookup, item CCCCCC[C@@H]1CCC2C(CO)[C@@H](O)CC[C@@H]2C1 (stereo not given in full)
17.4 µM (inactive)

# GI50 lookup, item COc1cc(C(=O)NO)ccc1O
> 100 µM (inactive)

# GI50 lookup, item CCOC(=O)C(C(=O)Cc1ccccc1)c1ccccc1 (stereo not given)
> 100 µM (inactive)

====

tested on: HOP-92; assay: NCI tumour cell line growth inhibition, 48 h
Active and inactive are the calls of the source. No stated cut-off is given here; in the data, active = GI50 up to about 1.1 µM and inactive = higher. Where a SMILES comes first, the peptide text is derived from it. The star is where a group is joined. Cbz = O=C(OCc1ccccc1)*; OBn = c1ccc(CO*)cc1
READOUT KIND: GI50

The cases that follow already have their GI50 on record.
MOLECULE	GI50
COC(=O)C(Cc1ccc(O)cc1)NC(=O)C(CC(=O)OCc1ccccc1)NC(=O)OCc1ccccc1 (stereo unspecified) (Cbz-Asp(OBn)-Tyr-OMe; configuration not given here)	51.1 µM (inactive)
COc1ccc(Cn2c3c(cc(OC(C)=O)c2=O)Cc2ccccc2-3)cc1	9.98 µM (inactive)
O=C1NC(=S)N(c2ccccc2)C1=O	> 100 µM (inactive)
CC1(C)C2CCC3(C2)CS(=O)(=O)N2OC231 (stereo unspecified)	10.8 µM (inactive)
NC(=O)c1csc(C2C=CC(CO)O2)n1 (stereo unspecified)	> 100 µM (inactive)
CCOC(=O)COc1ccc2c(C)cc(=O)oc2c1	> 100 µM (inactive)

# GI50 lookup, item c1ccc2c(c1)Cc1c(Cc3csc4ccccc34)ccc3cccc-2c13
> 100 µM (inactive)

# GI50 lookup, item O=C(/C=C/c1ccc(Cl)cc1)c1ccncc1
> 100 µM (inactive)

# GI50 lookup, item CCOC(=O)Cc1csc(Nc2ccccc2[N+](=O)[O-])n1
> 100 µM (inactive)

# GI50 lookup, item O=C1c2ccccc2-c2nnc3c(c21)-c1ccccc1C3
> 100 µM (inactive)

# GI50 lookup, item O=CN1CCN(C=S)CC1
> 100 µM (inactive)

Data credit: ChEMBL document CHEMBL1201862
